Biological target: histone deacetylase, subtype 1 (HDAC1) (Homo sapiens)
Construct: Flag; made in house
Assay: HDAC1-Flag assay (in vitro deacetylation assay)
Type: biochemical
Conditions: Table 1, benzothiophene backbone; concentration for 50% inhibition of deacetylation; substrate at Km; unit inferred, text gives nm; read-out: HDAC Inhibition
pIC50: −log10 of the molar value.
reported endpoint: pIC50

- compound: "O=C(NO)c1cc2cc(NS(=O)(=O)c3ccc4ccccc4c3)ccc2s1"
  pIC50: 7.28
- compound: "O=C(NCc1ccccc1Cl)c1ccc2sc(C(=O)NO)cc2c1"
  pIC50: 7.18
- compound: "O=C(NO)c1cc2ccc(COCc3ccccc3)cc2s1"
  pIC50: 6.70

(P) COc1cccc(CC(=O)Nc2ccc3sc(C(=O)NO)cc3c2)c1
(Q) O=C(NO)c1cc2cc(CNC(c3ccccc3)c3ccccc3)ccc2s1
(R) O=C(NO)c1ccc2sc(C(=O)NO)cc2c1
Rank the 3 compounds: largest pIC50 first, smallest last. Provide the ranking by listing each label in its place in the requested order.
P, R, Q
(P: 7.27, R: 6.37, Q: 6.06)

###

Target: histone deacetylase, subtype 1 (HDAC1) (Homo sapiens, UniProt Q13547)
Construct: Flag; made in house
Sequence (Q13547 whole entry): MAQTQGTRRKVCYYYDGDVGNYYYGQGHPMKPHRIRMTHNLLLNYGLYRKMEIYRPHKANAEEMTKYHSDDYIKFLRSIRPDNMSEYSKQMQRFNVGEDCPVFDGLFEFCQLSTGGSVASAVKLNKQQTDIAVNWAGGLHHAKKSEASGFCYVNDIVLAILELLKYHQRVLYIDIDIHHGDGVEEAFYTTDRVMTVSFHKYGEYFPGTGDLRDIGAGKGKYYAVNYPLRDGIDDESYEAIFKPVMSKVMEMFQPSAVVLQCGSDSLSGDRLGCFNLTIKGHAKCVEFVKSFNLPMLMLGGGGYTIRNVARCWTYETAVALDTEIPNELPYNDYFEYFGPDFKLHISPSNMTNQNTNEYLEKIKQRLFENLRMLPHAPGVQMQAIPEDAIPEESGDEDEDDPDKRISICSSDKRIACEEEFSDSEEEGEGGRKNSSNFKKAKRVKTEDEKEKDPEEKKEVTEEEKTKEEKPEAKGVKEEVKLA
Experiment: HDAC1-Flag assay (in vitro deacetylation assay)
Type: biochemical
Conditions: Table 1, benzothiophene backbone; concentration for 50% inhibition of deacetylation; substrate at Km; unit inferred, text gives nm; read-out: HDAC Inhibition
reported endpoint: IC50 (nM)

(1) O=C(CN1CCN(c2ccccn2)CC1)Nc1ccc2cc(C(=O)NO)sc2c1
(2) O=C(Nc1ccc2cc(C(=O)NO)sc2c1)c1cccnc1
(3) O=C(NCCCc1ccccc1)c1ccc2cc(C(=O)NO)sc2c1
(4) O=C(Nc1ccc2sc(C(=O)NO)cc2c1)c1ccc2ccccc2c1
(5) O=C(Nc1ccccc1)c1ccc2cc(C(=O)NO)sc2c1
Sort ascending by IC50: all records listed above. In plain terms: list the labels in the order you were asked to.
1, 3, 2, 4, 5
(1: 50 nM, 3: 90 nM, 2: 262 nM, 4: 413 nM, 5: 615 nM)

###

Target: histone deacetylase, subtype 1 (HDAC1) (Homo sapiens, UniProt Q13547)
Construct: Flag; made in house
Test: HDAC1-Flag assay (in vitro deacetylation assay)
Format: biochemical
Conditions: Table 1, benzothiophene backbone; concentration for 50% inhibition of deacetylation; substrate at Km; unit inferred, text gives nm; read-out: HDAC Inhibition
reported endpoint: IC50 (nM)

Take a look at these entries with their results.
- structure as smiles: "O=C(Cc1ccc(Cl)cc1)Nc1ccc2cc(C(=O)NO)sc2c1"
  IC50 (nM): 19
- structure as smiles: "O=C(NC1CCN(Cc2ccccc2)CC1)c1ccc2cc(C(=O)NO)sc2c1"
  IC50 (nM): 261
- structure as smiles: "COc1ccc(CCNCc2ccc3sc(C(=O)NO)cc3c2)cc1OC"
  IC50 (nM): 325

(P) O=C(NO)c1cc2cc(CNCc3cccc(Cl)c3)ccc2s1
(Q) O=C(NO)c1cc2cc(CNCCC(c3ccccc3)c3ccccc3)ccc2s1
Identify the item whose IC50 is the smaller number: P or Q Output the label that corresponds to your choice.
P

###

Molecular target: histone deacetylase, subtype 1 (HDAC1) (Homo sapiens, UniProt Q13547)
Construct: Flag; made in house
Experiment: HDAC1-Flag assay (in vitro deacetylation assay)
Assay type: biochemical
Details: Table 2, thiophene backbone; concentration for 50% inhibition of deacetylation; substrate at Km; unit inferred, text gives nm; read-out: HDAC Inhibition
reported endpoint: IC50 (nM)

- structure as smiles: "O=C(NO)c1ccc(-c2cccc(CN(CCCc3ccccc3)Cc3ccccc3)c2)s1"
  target or system: "histone deacetylase, subtype 1 (HDAC1) (Homo sapiens, UniProt Q13547)"
  quantity unit: "nM"
  IC50: 1010

(A) O=C(NO)c1ccc(-c2cccc(CN(Cc3ccccc3)Cc3ccccc3)c2)s1
(B) O=C(NO)c1ccc(-c2ccccc2)s1
(C) O=C(/C=C/c1ccc(C(=O)NO)s1)NCC1CCCCC1
# rank by IC50, ascending (min first) Use the labels to give the requested order.
C, B, A
(C: 120 nM, B: 219 nM, A: 1000 nM)

###

Target: histone deacetylase, subtype 1 (HDAC1) (Homo sapiens)
Construct: Flag; made in house
Test: HDAC1-Flag assay (in vitro deacetylation assay)
Format: biochemical
Conditions: Table 1, benzothiophene backbone; concentration for 50% inhibition of deacetylation; substrate at Km; unit inferred, text gives nm; read-out: HDAC Inhibition
pIC50: −log10 of the molar value.
reported endpoint: pIC50

(1) O=C(NO)c1cc2ccc(NS(=O)(=O)Cc3ccccc3)cc2s1
(2) CC(C)C(=O)Nc1ccc2sc(C(=O)NO)cc2c1
(3) O=C(NO)c1cc2ccc(NS(=O)(=O)c3cccc4ccccc34)cc2s1
Sequence the entries by pIC50, beginning with the highest number. Ranked list of labels, please, in the requested order.
3, 1, 2
(3: 7.59, 1: 7.39, 2: 6.83)

(P) COc1ccc(C(=O)Nc2ccc3cc(C(=O)NO)sc3c2)cc1OC
(Q) O=C(NO)c1cc2ccc(CNCCc3c[nH]c4ccccc34)cc2s1
Quick check, higher pIC50 between P and Q ? Answer with the label corresponding to your selection.
Q

###

Biological target: histone deacetylase, subtype 1 (HDAC1) (Homo sapiens)
Construct: Flag; made in house
Experiment: HDAC1-Flag assay (in vitro deacetylation assay)
Assay type: biochemical
Conditions: Table 1, benzothiophene backbone; concentration for 50% inhibition of deacetylation; substrate at Km; unit inferred, text gives nm; read-out: HDAC Inhibition
reported endpoint: IC50 (nM)

- compound: "O=C(NO)c1cc2cc(NS(=O)(=O)c3cccc4ccccc34)ccc2s1 [Compound 27]"
  target or system: "histone deacetylase, subtype 1 (HDAC1) (Homo sapiens)"
  reported endpoint: "IC50"
  recorded result: 102
- compound: "COc1ccc(CC(=O)Nc2ccc3sc(C(=O)NO)cc3c2)cc1 [Compound 96]"
  target or system: "histone deacetylase, subtype 1 (HDAC1) (Homo sapiens)"
  reported endpoint: "IC50"
  recorded result: 83
- compound: "CCC(C(=O)Nc1ccc2sc(C(=O)NO)cc2c1)c1ccccc1 (stereo not drawn) [Compound 86]"
  target or system: "histone deacetylase, subtype 1 (HDAC1) (Homo sapiens)"
  reported endpoint: "IC50"
  recorded result: 92.5
- compound: "O=C(NO)c1cc2ccc(C(=O)N3CCN(c4ccc(Cl)cc4)CC3)cc2s1 [Compound 158]"
  target or system: "histone deacetylase, subtype 1 (HDAC1) (Homo sapiens)"
  reported endpoint: "IC50"
  recorded result: 441
- compound: "COc1ccccc1CNC(=O)c1ccc2sc(C(=O)NO)cc2c1 [Compound 166]"
  target or system: "histone deacetylase, subtype 1 (HDAC1) (Homo sapiens)"
  reported endpoint: "IC50"
  recorded result: 90
- compound: "O=C(Cc1ccccc1)Nc1ccc2sc(C(=O)NO)cc2c1 [Compound 15]"
  target or system: "histone deacetylase, subtype 1 (HDAC1) (Homo sapiens)"
  reported endpoint: "IC50"
  recorded result: 31
- compound: "COc1ccc(OC)c(CC(=O)Nc2ccc3cc(C(=O)NO)sc3c2)c1 [Compound 51]"
  target or system: "histone deacetylase, subtype 1 (HDAC1) (Homo sapiens)"
  reported endpoint: "IC50"
  recorded result: 62
- compound: "CC(C)(C)OC(=O)CN(CC(=O)Nc1ccc2cc(C(=O)NO)sc2c1)CC(=O)OC(C)(C)C [Compound 118]"
  target or system: "histone deacetylase, subtype 1 (HDAC1) (Homo sapiens)"
  reported endpoint: "IC50"
  recorded result: 236

(P) O=C(Nc1cccc2cccnc12)c1ccc2cc(C(=O)NO)sc2c1 [Compound 182]
(Q) O=C(NO)c1cc2cc(NS(=O)(=O)c3ccc(-c4ccccc4)cc3)ccc2s1 [Compound 18]
Could you tell me which of these two has the smaller IC50 figure? First: P Second: Q Identify your pick by its label.
Q
(Q: 91 nM, P: 1070 nM)

(P) O=C(CN1CCCN(C(=O)OCc2ccccc2)CC1)Nc1ccc2cc(C(=O)NO)sc2c1 [Compound 121]
(Q) O=C(NO)c1cc2ccc(NC(=O)C3(c4ccccc4)CC3)cc2s1 [Compound 126]
Which value of IC50 is smaller, the one for P or the one for Q ? Write down the label of the entry you select.
Q
(Q: 125 nM, P: 184 nM)

(I) O=C(NO)C(=O)Nc1ccc2cc(C(=O)NO)sc2c1 [Compound 24]
(II) COc1ccc(CN(Cc2ccc3cc(C(=O)NO)sc3c2)C2CCCCC2)cc1 [Compound 193]
Of I and II , whose reported IC50 is the larger number? Give the chosen item's label as your response.
I
(I: 1170 nM, II: 99 nM)

(a) O=C(NO)c1cc2cc(CNCCc3ccc(OCc4ccccc4)c(OCc4ccccc4)c3)ccc2s1 [Compound 144]
(b) O=C(NCC(c1ccccc1)c1ccccc1)c1ccc2cc(C(=O)NO)sc2c1 [Compound 130]
Identify the entry with the smaller IC50: a or b . Please indicate the selected item by its label.
b

(I) O=C(NO)c1cc2ccc(C(=O)N3CCC(Cc4ccccc4)CC3)cc2s1 [Compound 190]
(II) O=C(CN1CCN(c2ccccc2)CC1)Nc1ccc2cc(C(=O)NO)sc2c1 [Compound 46]
Record comparison, field IC50: mark the lower of I and II . Pick one and reply with its label.
II
